tested on: HCT-15
# if measured GI50 < 10 µM: true (1)  # else: false (0)

- COMPOUND: "COc1c(C)c(OCC=C(C)C)cc(CO)c1CO"
  TARGET OR TEST SYSTEM: "HCT-15"
  ASSIGNED CLASS: "false (0)"
- COMPOUND: "COC(=O)[C@H]1C=C[C@H](OC2OC(COC(C)=O)C(OC(C)=O)C(OC(C)=O)C2OC(C)=O)n2c(=O)n(-c3ccccc3)c(=O)n21 (stereo partly specified)"
  TARGET OR TEST SYSTEM: "HCT-15"
  ASSIGNED CLASS: "true (1)"
- COMPOUND: "CC1Nc2ccccc2NC1C=C(C#N)C#N (stereo unspecified)"
  TARGET OR TEST SYSTEM: "HCT-15"
  ASSIGNED CLASS: "false (0)"
- COMPOUND: "CC1(C)/C(=N\\O)C2(C#N)CCC1C2 (stereo unspecified)"
  TARGET OR TEST SYSTEM: "HCT-15"
  ASSIGNED CLASS: "false (0)"
- COMPOUND: "Cc1cccc2c(NCCN(C)C)c3cccc(C(=O)NCCN(C)C)c3nc12"
  TARGET OR TEST SYSTEM: "HCT-15"
  ASSIGNED CLASS: "true (1)"
- COMPOUND: "Cc1ccccc1-n1c(C)nc2c1C(=O)c1ccccc1C2=O"
  TARGET OR TEST SYSTEM: "HCT-15"
  ASSIGNED CLASS: "false (0)"
- COMPOUND: "O=C(O)C1=C(C(=O)Nc2ccccc2)C2C=CC1C2 (stereo unspecified)"
  TARGET OR TEST SYSTEM: "HCT-15"
  ASSIGNED CLASS: "false (0)"
- COMPOUND: "O=C1NC(Nc2ccccc2)=N/C1=C\\c1c(Cl)cccc1Cl"
  TARGET OR TEST SYSTEM: "HCT-15"
  ASSIGNED CLASS: "false (0)"
- COMPOUND: "O=C1O/C(=C(\\Br)c2ccc([N+](=O)[O-])cc2)c2ccccc21"
  TARGET OR TEST SYSTEM: "HCT-15"
  ASSIGNED CLASS: "false (0)"
- COMPOUND: "Cc1cc2[nH]c3c(C#N)c(-c4ccccc4)c(CN4CCOCC4)c(=O)n3c2cc1C"
  TARGET OR TEST SYSTEM: "HCT-15"
  ASSIGNED CLASS: "false (0)"
- COMPOUND: "COc1ccc(N(C(=O)Nc2ccc(Cl)c(Cl)c2)c2ccccc2)cc1"
  TARGET OR TEST SYSTEM: "HCT-15"
  ASSIGNED CLASS: "false (0)"
- COMPOUND: "COc1ccccc1N1C(=O)CS(=O)(=O)C1c1cccc(Oc2ccccc2)c1 (stereo unspecified)"
  TARGET OR TEST SYSTEM: "HCT-15"
  ASSIGNED CLASS: "false (0)"
- COMPOUND: "Cc1cc2nc(-c3cc(C(C)(C)C)c(O)c(C(C)(C)C)c3)[nH]c2cc1C"
  TARGET OR TEST SYSTEM: "HCT-15"
  ASSIGNED CLASS: "true (1)"
- COMPOUND: "COC(=O)C1CCC(=O)N1C(c1ccccc1)c1ccc(OC)c(OC)c1 (stereo unspecified)"
  TARGET OR TEST SYSTEM: "HCT-15"
  ASSIGNED CLASS: "false (0)"
- COMPOUND: "COCOc1ccc(C2(O)Oc3cc(OCOC)ccc3C2C)c(O)c1 (stereo unspecified)"
  TARGET OR TEST SYSTEM: "HCT-15"
  ASSIGNED CLASS: "false (0)"
- COMPOUND: "Fc1cc(C2=Nn3c(CNc4ccc(Cl)cc4)nnc3S/C2=C\\c2ccc(-c3ccc(Cl)cc3)o2)c(Cl)cc1Cl"
  TARGET OR TEST SYSTEM: "HCT-15"
  ASSIGNED CLASS: "false (0)"
- COMPOUND: "Oc1cn(-c2ccc(Cl)cc2)nc1-c1nnc(Nc2ccccc2)o1"
  TARGET OR TEST SYSTEM: "HCT-15"
  ASSIGNED CLASS: "false (0)"
- COMPOUND: "CSc1ccc(/C=C2/C[N+](C)(C)C/C(=C/c3ccc(SC)cc3)C2=O)cc1"
  TARGET OR TEST SYSTEM: "HCT-15"
  ASSIGNED CLASS: "false (0)"
- COMPOUND: "N=C(N)SCCCN"
  TARGET OR TEST SYSTEM: "HCT-15"
  ASSIGNED CLASS: "true (1)"
- COMPOUND: "C=CCCCN1C(=O)C2C3c4ccccc4C(C=O)(c4ccccc43)C2C1=O (stereo unspecified)"
  TARGET OR TEST SYSTEM: "HCT-15"
  ASSIGNED CLASS: "true (1)"
- COMPOUND: "O=C1c2ccc3ccccc3c2CCC1N1CCCCC1 (stereo unspecified)"
  TARGET OR TEST SYSTEM: "HCT-15"
  ASSIGNED CLASS: "false (0)"

* * *

test system: T47D; experiment: NCI tumour cell line growth inhibition, 48 h
Active and inactive are the calls of the source. Cut-off read from the data, not from the text of the source: active = GI50 up to about 1.1 µM and inactive = higher.
Here, each record is paired with measured GI50 data.

- COMPOUND: "Oc1ccc(Nc2nc(Cl)c3nc[nH]c3n2)cc1"
  TARGET OR TEST SYSTEM: "T47D"
  GI50: "61.9 µM (inactive)"
- COMPOUND: "CSc1ccc(C(=O)C(=O)c2ccc(SC)s2)s1"
  TARGET OR TEST SYSTEM: "T47D"
  GI50: "> 10 µM (inactive)"
- COMPOUND: "COc1cc2c(cc1OC)C(=O)/C(=C/c1ccc([N+](=O)[O-])cc1)CC2"
  TARGET OR TEST SYSTEM: "T47D"
  GI50: "> 10 µM (inactive)"
- COMPOUND: "CC1(C)[N+]([O-])=[N+]([O-])C1(Br)c1ccccc1 (centres undefined)"
  TARGET OR TEST SYSTEM: "T47D"
  GI50: "> 100 µM (inactive)"
- COMPOUND: "COC(=O)c1cccc(OC)c1C#Cc1c(OC)cccc1OC"
  TARGET OR TEST SYSTEM: "T47D"
  GI50: "76.2 µM (inactive)"
- COMPOUND: "CC(=O)c1c(C)n(C)c2c1nnc1ccccc12"
  TARGET OR TEST SYSTEM: "T47D"
  GI50: "> 100 µM (inactive)"
- COMPOUND: "COC(=O)c1c(O)ccc2c1c1c(n2CCc2ccccc2)C(=O)c2ccccc2C1=O"
  TARGET OR TEST SYSTEM: "T47D"
  GI50: "5.47 µM (inactive)"
- COMPOUND: "CCCC(=O)N(C(=O)CCC)C1=C(Cl)C(=O)c2ccccc2C1=O"
  TARGET OR TEST SYSTEM: "T47D"
  GI50: "2.33 µM (inactive)"
- COMPOUND: "Cc1cc2nc(-c3cc(C(C)(C)C)c(O)c(C(C)(C)C)c3)[nH]c2cc1C"
  TARGET OR TEST SYSTEM: "T47D"
  GI50: "> 100 µM (inactive)"
- COMPOUND: "COc1ccc(/[N+]([O-])=C/c2ccccc2OC(=S)S)cc1"
  TARGET OR TEST SYSTEM: "T47D"
  GI50: "41.8 µM (inactive)"
- COMPOUND: "COCOc1ccc(C2(O)Oc3cc(OCOC)ccc3C2C)c(O)c1 (centres undefined)"
  TARGET OR TEST SYSTEM: "T47D"
  GI50: "12.3 µM (inactive)"
- COMPOUND: "COc1cccc2c1C(=O)c1c(O)c3c(c(O)c1C2=O)C[C@@](O)(C(C)=O)C[C@@H]3OC1CC(O)C(O)C(C)O1 (some centres undefined)"
  TARGET OR TEST SYSTEM: "T47D"
  GI50: "2.82 µM (inactive)"
- COMPOUND: "N=C(N)SCCCN"
  TARGET OR TEST SYSTEM: "T47D"
  GI50: "32.2 µM (inactive)"
- COMPOUND: "COc1ccc(C2=NN(c3ccccc3)C(c3cc4cc(Br)ccc4nc3Cl)C2)cc1 (centres undefined)"
  TARGET OR TEST SYSTEM: "T47D"
  GI50: "> 25 µM (inactive)"
